Test system: Candida albicans SNY425 biofilm
Assay Notes: biofilm OD600 with compound plus antifungal (OD600 (absorbance)); higher = more biofilm remaining
Conditions: assay detail: disruption of 24-h mature biofilm (compound + antifungal for a second 24 h)
Counter-ions that a name gives are not always drawn.
Reported Endpoint: biofilm OD600
Field format: numeric only.

# input Give a short answer stating reported biofilm OD600 for O=C(O)CNC(=O)C(CS)Cc1ccccc1 (racemic) [DL-Thiorphan] + CC[C@H](C)C[C@H](C)CCCCCCCCC(=O)N[C@H]1C[C@@H](O)[C@@H](NCCN)NC(=O)[C@@H]2[C@@H](O)CCN2C(=O)[C@H]([C@H](O)CCN)NC(=O)[C@H]([C@H](O)[C@@H](O)c2ccc(O)cc2)NC(=O)[C@@H]2C[C@@H](O)CN2C(=O)[C@H]([C@@H](C)O)NC1=O [caspofungin] (first compound 12.5 µM) .
# output 0.262

# input Give a short answer stating reported biofilm OD600 for O=C1Nc2ccc([N+](=O)[O-])cc2C1=O [5-Nitroisatin] + C[C@@H]1[C@H](O)[C@@H](C)/C=C/C=C/C=C/C=C/C=C/C=C/C=C/[C@H](O[C@@H]2O[C@H](C)[C@@H](O)[C@H](N)[C@@H]2O)C[C@@H]2O[C@](O)(C[C@@H](O)C[C@@H](O)[C@H](O)CC[C@@H](O)C[C@@H](O)CC(=O)O[C@H]1C)C[C@H](O)[C@H]2C(=O)O [amphotericin B] (first compound 12.5 µM) .
# output 0.256

# input Give a short answer stating reported biofilm OD600 for N=C(N)Nc1ccc(C(=O)Oc2ccc3cc(C(=N)N)ccc3c2)cc1 [Nafamostat mesylate] + OC(Cn1cncn1)(Cn1cncn1)c1ccc(F)cc1F [fluconazole] (first compound 12.5 µM) .
# output 0.262

# input Give a short answer stating reported biofilm OD600 for C[C@]1(Cn2ccnn2)[C@H](C(=O)O)N2C(=O)C[C@H]2S1(=O)=O [Tazobactam] + CC[C@H](C)C[C@H](C)CCCCCCCCC(=O)N[C@H]1C[C@@H](O)[C@@H](NCCN)NC(=O)[C@@H]2[C@@H](O)CCN2C(=O)[C@H]([C@H](O)CCN)NC(=O)[C@H]([C@H](O)[C@@H](O)c2ccc(O)cc2)NC(=O)[C@@H]2C[C@@H](O)CN2C(=O)[C@H]([C@@H](C)O)NC1=O [caspofungin] (first compound 12.5 µM) .
# output 0.275

# input Give a short answer stating reported biofilm OD600 for CCCC[C@@H](C=O)NC(=O)[C@H](CC(C)C)NC(=O)OCc1ccccc1 [Calpeptin] + C[C@@H]1[C@H](O)[C@@H](C)/C=C/C=C/C=C/C=C/C=C/C=C/C=C/[C@H](O[C@@H]2O[C@H](C)[C@@H](O)[C@H](N)[C@@H]2O)C[C@@H]2O[C@](O)(C[C@@H](O)C[C@@H](O)[C@H](O)CC[C@@H](O)C[C@@H](O)CC(=O)O[C@H]1C)C[C@H](O)[C@H]2C(=O)O [amphotericin B] (first compound 12.5 µM) .
# output 0.266

# input Give a short answer stating reported biofilm OD600 for Cc1cccc(C)c1OCC(=O)N[C@@H](Cc1ccccc1)[C@@H](O)C[C@H](Cc1ccccc1)NC(=O)[C@H](C(C)C)N1CCCNC1=O [lopinavir] + OC(Cn1cncn1)(Cn1cncn1)c1ccc(F)cc1F [fluconazole] (first compound 12.5 µM) .
# output 0.246
